System: RXF 393 renal
Assay Summary: NCI-60 one-dose screen, 48 h
Condition Set: 10 µM unless noted
About 83,000 compounds went through this panel and 20% of them were active in at least one assay; those are over-represented in the sample as a whole. Calls of active or inactive are those of the source. The calls were made as follows: active = growth percent below 10; inactive = the rest.
Classes used: active, inactive

| Compound | Assigned Class |
| --- | --- |
| C[C@@H](Oc1ccc(C(=O)NS(=O)(=O)C(C)(C)C)cc1C(F)(F)F)c1ccc(Oc2ccccc2)cn1 | active |
| Nc1ccc(Cl)cn1 | inactive |
| OCC(CO)(CCl)CCl | inactive |
| C=C1C(=O)O[C@H]2[C@H]1CC/C(Cn1cc(-c3ccc(F)cc3)nn1)=C\CC[C@@]1(C)O[C@@H]21 | active |
| Cc1cc2nc3c4cc([N+](=O)[O-])cc([N+](=O)[O-])c4n(CCN(C)C)c3nc2cc1C | inactive |
| COc1cccc(-c2nn(-c3ccccc3)cc2-c2ccnc(NCCCNS(=O)(=O)c3ccc(C(F)(F)F)cc3)c2)c1 | active |
| c1cnc2[nH]cc(-c3csc(-c4cn(CCCN5CCCCC5)c5ccccc45)n3)c2c1 | inactive |
| Cc1ccc(Sc2sc(-c3ccccc3)nc2[P+](c2ccccc2)(c2ccccc2)c2ccccc2)cc1 | active |
| N#CC1=C(N)Oc2c(c(N)nn2-c2ccccc2)C1c1ccc(Cl)cc1 (stereo not given) | inactive |
| C#CCN=C[C@]12CC[C@@H](C(=C)C)[C@@H]1[C@H]1CC[C@@H]3[C@@]4(C)CCC(=O)C(C)(C)[C@@H]4CC[C@@]3(C)[C@]1(C)CC2 | inactive |
| O=C1/C(=C\c2ccco2)SC(=S)N1CCc1ccc(O)cc1 | inactive |
| COc1cc(-c2cc3ncccc3c3nc(N)c4cccnc4c23)cc(OC)c1OC | inactive |
| CC(C)(C)c1nc(-c2ccc(O)c(O)c2)cs1 | inactive |
| COc1cc2c3c(c4c5ccccc5[nH]c4c2c(OC)c1OC)C(=O)N(O)C3=O | inactive |
| COc1cnc2c(c1)C(=O)c1c-2n(CCCNC2=NCCS2)c(=O)c2cc([N+](=O)[O-])ccc12 | active |
| O=C(O)c1cccc2c1-c1ccc(Cl)cc1C2 | inactive |
| NC(Cc1ccc(O)cc1)C(=O)N/N=C/c1ccccc1O (stereo not given) | inactive |
| O=C1c2cccc3cccc(c23)C(=O)N1CC#Cc1ccc2c3c(cccc13)C(=O)N(CCO)C2=O | inactive |
| COc1cc2ncnc(Nc3ccc(OCc4cccc(F)c4)c(Cl)c3)c2cc1NC(=O)C1CCCC1 | inactive |
| CCCCCCCCNc1cccc2c1C(=O)c1ccccc1C2=O | inactive |
